# EXPERIMENT: Pharmacokinetics after repeated oral administration of 250 μg/kg and 35 μg/kg of fluralaner in dogs after feeding
# Assay type: in vivo, beagle dogs
# EXPERIMENTAL SETUP: beagle, dog, plasma, po, 144 h; oral 250/35/600 μg/kg regimen, dogs, n=6; read-out: fluralaner concentration levels, Minimum

{"COMPOUND": "Cc1cc(C2=NOC(c3cc(Cl)cc(Cl)c3)(C(F)(F)F)C2)ccc1C(=O)NCC(=O)NCC(F)(F)F (stereo not shown) [fluralaner, Fluralaner]", "concentration at 144 h (ng/mL)": 447}

----------
# EXPERIMENT: Pharmacokinetics after repeated oral administration of 250 μg/kg and 35 μg/kg of fluralaner in dogs after feeding
# Assay type: in vivo, beagle dogs
# EXPERIMENTAL SETUP: beagle, dog, plasma, po, 72 h; oral 250/35/600 μg/kg regimen, dogs, n=6; read-out: fluralaner concentration levels, GeoMean
READOUT TYPE: concentration at 72 h

{"COMPOUND": "Cc1cc(C2=NOC(c3cc(Cl)cc(Cl)c3)(C(F)(F)F)C2)ccc1C(=O)NCC(=O)NCC(F)(F)F (stereo not shown)", "OBSERVED MEASUREMENT": "386 ng/mL"}
